# System: cell line ET (luc-ubi-neo/ET), human Huh7 hepatoma cell line
# experimentalDetails: Method A: cytotoxicity in ET replicon cells (CytoTox-1)
# Assay type: cell-based
# experimentalContext: concentration decreasing cell viability by 50%, 72 hr
parameterMeasured: Inhibition, Cytotoxicity

>>> valueobserved("C=C[C@@H]1C[C@]1(NC(=O)[C@@H]1C[C@@H](Oc2cc(-c3ccccc3)nc3cc(OC)ccc23)CN1C(=O)[C@H](CN(C)C(=O)[C@H](Cl)c1ccccc1)NC(=O)OC(C)(C)C)C(=O)NS(=O)(=O)c1ccccc1")
"E (IC50≧10,000 nM)"
>>> valueobserved("C=C[C@@H]1C[C@]1(NC(=O)[C@@H]1C[C@@H](Oc2cc(-c3ccccc3)nc3cc(OC)ccc23)CN1C(=O)[C@H](CN(C)C(=O)C(=C)C)NC(=O)OC(C)(C)C)C(=O)NS(=O)(=O)c1ccccc1")
"E (IC50≧10,000 nM)"

* * *

# system: D168A mutant of the HCV NS3/4A 1b protease enzyme (Hepatitis C virus genotype 1b, UniProt P26663, D1194A)
# Construct: 10× stocks of NS3/4A protease enzyme from Bioenza (Mountain View, Calif.); purchased Bioenza (Mountain View, Calif.)
# experimentalDetails: HCV Protease FRET Assay (IC50), D168A mutant
# Type: biochemical
# experimentalContext: read-out: Inhibition, HCV D168A; D168A enzyme, FRET assay
# Experimental: HCV Protease FRET Assay for Wild Type and Mutated NS3/4A 1b Enzymes (IC50) Protease reactions were started with the addition of 45 μL of the FRET substrate and monitored for 120 minutes at λex487/λem514 through Quad^4 monochromoters in a Synergy^4 plate reader from BioTek (Winooski, Vt.). At the conclusion of each assay, progress curves from each well were examined for linear reaction kinetics and fit statistics (R^2, absolute sum of squares). […]
pIC50: −log10 of the molar value.
Entries annotated with measured pIC50
parameterMeasured: pIC50

>>> valueobserved("C=C[C@@H]1C[C@]1(NC(=O)[C@@H]1C[C@@H](Oc2cc(-c3ccccc3)nc3cc(OC)ccc23)CN1C(=O)[C@H](CNC(=O)C(Cl)c1ccccc1)NC(=O)OC(C)(C)C)C(=O)NS(=O)(=O)c1ccccc1 (stereo partly drawn)")
"6.00 to 7.00"
>>> valueobserved("C=C[C@@H]1C[C@]1(NC(=O)[C@@H]1C[C@@H](Oc2cc(-c3ccccc3)nc3cc(OC)ccc23)CN1C(=O)CNC(=O)C(=C)C)C(=O)NS(=O)(=O)c1ccccc1")
"5.00 to 6.00"
>>> valueobserved("C=C[C@@H]1C[C@]1(NC(=O)[C@@H]1C[C@@H](Oc2cc(-c3ccccc3)nc3cc(OC)ccc23)CN1C(=O)[C@H](CNC(=O)[C@@H](C)Cl)NC(=O)OC(C)(C)C)C(=O)NS(=O)(=O)c1ccccc1")
"6.00 to 7.00"
>>> valueobserved("C=CC(=O)N(C)C[C@H](NC(=O)OC(C)(C)C)C(=O)N1C[C@H](Oc2cc(-c3ccccc3)nc3cc(OC)ccc23)C[C@H]1C(=O)N[C@]1(C(=O)NS(=O)(=O)c2ccccc2)C[C@H]1C=C")
"6.00 to 7.00"
>>> valueobserved("C=CC(=O)NCC(=O)N1C[C@H](Oc2cc(-c3ccccc3)nc3cc(OC)ccc23)C[C@H]1C(=O)N[C@]1(C(=O)NS(=O)(=O)C2CC2)C[C@H]1C=C")
"> 8.00"
>>> valueobserved("C=C[C@@H]1C[C@]1(NC(=O)[C@@H]1C[C@@H](Oc2cc(-c3ccccc3)nc3cc(OC)ccc23)CN1C(=O)[C@H](CNC(=O)/C=C/C)NC(=O)OC(C)(C)C)C(=O)NS(=O)(=O)c1ccccc1")
"5.00 to 6.00"
>>> valueobserved("C=CC(=O)NC[C@H](NC(=O)CCCCCNC(=O)CCCC[C@@H]1SC[C@@H]2NC(=O)N[C@@H]21)C(=O)N1C[C@H](Oc2cc(-c3ccccc3)nc3cc(OC)ccc23)C[C@H]1C(=O)N[C@]1(C(=O)NS(=O)(=O)c2ccccc2)C[C@H]1C=C")
"7.00 to 8.00"
>>> valueobserved("C=C[C@@H]1C[C@]1(NC(=O)[C@@H]1C[C@@H](Oc2cc(-c3ccccc3)nc3cc(OC)ccc23)CN1C(=O)CNC(=O)C#CC)C(=O)NS(=O)(=O)C1CC1")
"5.00 to 6.00"
>>> valueobserved("C=CC(=O)N[C@@H](C)C(=O)N1C[C@H](Oc2cc(-c3ccccc3)nc3cc(OC)ccc23)C[C@H]1C(=O)N[C@]1(C(=O)NS(=O)(=O)c2ccccc2)C[C@H]1C=C")
"5.00 to 6.00"
